Biological target: various mutants of kinase EGFR (BaF3 cell lines stably transfected with kinase) (Homo sapiens, UniProt P00533, L858R/T790M)
Construct: expressed in transfected cells; host or cells: BaF3
Sequence (P00533 25-1210 T790M/L858R): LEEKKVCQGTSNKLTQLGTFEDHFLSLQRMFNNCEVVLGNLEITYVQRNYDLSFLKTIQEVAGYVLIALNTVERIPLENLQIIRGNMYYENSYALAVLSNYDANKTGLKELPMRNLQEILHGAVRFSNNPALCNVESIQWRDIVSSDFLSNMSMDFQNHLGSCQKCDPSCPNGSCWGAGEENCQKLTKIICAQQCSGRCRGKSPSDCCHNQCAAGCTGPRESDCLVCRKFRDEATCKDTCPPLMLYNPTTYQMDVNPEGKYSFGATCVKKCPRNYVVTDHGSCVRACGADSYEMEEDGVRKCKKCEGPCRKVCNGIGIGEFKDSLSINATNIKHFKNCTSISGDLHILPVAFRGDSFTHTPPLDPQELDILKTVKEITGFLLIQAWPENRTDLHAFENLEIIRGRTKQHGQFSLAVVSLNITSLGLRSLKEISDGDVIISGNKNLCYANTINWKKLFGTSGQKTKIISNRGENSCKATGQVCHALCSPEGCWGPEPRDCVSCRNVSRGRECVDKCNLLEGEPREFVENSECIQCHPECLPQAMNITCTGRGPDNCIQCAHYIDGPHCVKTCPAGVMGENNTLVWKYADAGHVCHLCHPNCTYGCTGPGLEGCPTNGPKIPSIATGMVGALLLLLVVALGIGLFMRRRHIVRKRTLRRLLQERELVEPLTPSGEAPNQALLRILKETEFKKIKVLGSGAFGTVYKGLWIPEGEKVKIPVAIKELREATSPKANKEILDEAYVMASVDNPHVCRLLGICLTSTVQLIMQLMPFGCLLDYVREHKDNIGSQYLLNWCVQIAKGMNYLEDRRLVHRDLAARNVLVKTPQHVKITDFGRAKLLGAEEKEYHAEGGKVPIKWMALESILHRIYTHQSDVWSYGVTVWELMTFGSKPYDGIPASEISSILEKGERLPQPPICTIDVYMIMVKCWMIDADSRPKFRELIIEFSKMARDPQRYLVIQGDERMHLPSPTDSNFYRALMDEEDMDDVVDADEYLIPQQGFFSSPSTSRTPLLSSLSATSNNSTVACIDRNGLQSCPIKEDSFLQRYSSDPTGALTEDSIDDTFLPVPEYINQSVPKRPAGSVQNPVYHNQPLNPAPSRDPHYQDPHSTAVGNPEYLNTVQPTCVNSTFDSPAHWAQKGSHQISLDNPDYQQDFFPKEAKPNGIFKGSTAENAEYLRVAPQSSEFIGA
Assay: Growth inhibitory activity of compounds on BaF3 cell lines stably transfected with kinase (MTS, 48 h)
Type: cell-based
Conditions: BaF3 cells stably transfected with EGFR L858R/T790M, read-out: IC50, growth inhibition, L858R/T790M
MEASURED ATTRIBUTE: IC50

[
  {
    "RECORD SMILES": "CN1CCN(C(=O)c2cccc(Nc3ncc(Br)c(Nc4ccc5nccnc5c4N(C)S(C)(=O)=O)n3)c2)CC1",
    "IC50": "≤ 50 nM"
  },
  {
    "RECORD SMILES": "CCc1cc(Nc2ncc(Cl)c(Nc3ccc4nccnc4c3N(C)S(C)(=O)=O)n2)ccc1N1CCC(N2CCN(C)CC2)CC1",
    "IC50": "≤ 50 nM"
  }
]

Then there is this compound:
*Q* Provide IC50 value for the following compound: `CCS(=O)(=O)N(C)c1c(Nc2nc(Nc3cc(CC4CC4)c(N4CCC(N5CCN(C)CC5)CC4)cc3OC)ncc2Cl)ccc2nccnc12`
*A* ≤ 50 nM

====

This listing pairs molecules with measured IC50.
Target: various mutants of kinase EGFR (BaF3 cell lines stably transfected with kinase) (Homo sapiens)
Construct: other: BaF3 cells stably transfected with EGFR Δ19Del; MTS, 48 h; other: BaF3 cell line stably transfected with EGFR Δ19Del
Assay: Growth inhibitory activity of compounds on BaF3 cell lines stably transfected with kinase (MTS, 48 h)
Assay type: cell-based
Conditions: BaF3 cells stably transfected with EGFR Δ19Del, read-out: IC50, growth inhibition, Δ19Del

Previously resolved entries follow.
[
  {
    "RECORD SMILES": "COc1cc(N2CCC(N(C)C)CC2)c(C)cc1Nc1ncc([N+](=O)[O-])c(Nc2ccc3nccnc3c2N(C)S(C)(=O)=O)n1",
    "IC50": "≤ 50 nM"
  },
  {
    "RECORD SMILES": "CCc1cc(Nc2ncc(C)c(Nc3ccc4nccnc4c3N(C)S(C)(=O)=O)n2)c(OC)cc1N1CCC(N2CCN(C)CC2)CC1",
    "IC50": "≤ 50 nM"
  }
]

*Q* Provide IC50 value for the following molecule: `CCN(c1c(Nc2nc(Nc3cc(C)c(N4CCC(N(C)C)CC4)cc3OC)ncc2Cl)ccc2nccnc12)S(C)(=O)=O`
*A* ≤ 50 nM

*Q* Provide IC50 value for the following molecule: `CCc1cc(Nc2ncc(Br)c(Nc3ccc4nccnc4c3N(C3CC3)S(C)(=O)=O)n2)c(OC)cc1N1CCC(N2CCN(C)CC2)CC1`
*A* 50 to 500 nM

*Q* Provide IC50 value for the following molecule: `CN1CCN(C2CCN(c3ccc(Nc4ncc(F)c(Nc5ccc6nccnc6c5N(C)S(C)(=O)=O)n4)c(OC(F)(F)F)c3)CC2)CC1`
*A* 50 to 500 nM

*Q* Provide IC50 value for the following molecule: `CCc1cc(Nc2ncc(Cl)c(Nc3ccc4nccnc4c3N(C3CC3)S(C)(=O)=O)n2)c(OC)nc1N1CCC(N2CCN(C)CC2)CC1`
*A* ≤ 50 nM

====

Target: various mutants of kinase EGFR (BaF3 cell lines stably transfected with kinase) (Homo sapiens, UniProt P00533, L858R/T790M)
Construct: expressed in transfected cells; host or cells: BaF3
Test: Growth inhibitory activity of compounds on BaF3 cell lines stably transfected with kinase (MTS, 48 h)
Format: cell-based
Conditions: BaF3 cells stably transfected with EGFR L858R/T790M, read-out: IC50, growth inhibition, L858R/T790M
MEASURED ATTRIBUTE: IC50

Previously resolved entries follow.
[
  {
    "COMPOUND": "C=Cc1cc(Nc2ncc(Cl)c(Nc3ccc4nccnc4c3N(C)S(=O)(=O)C(F)(F)F)n2)c(OC(F)(F)F)cc1N1CCC(N2CCN(C)CC2)CC1 [Compound I-263]",
    "READOUT VALUE": "500 to 2500 nM"
  },
  {
    "COMPOUND": "CCS(=O)(=O)N(C)c1c(Nc2nc(Nc3ccc(N4CCC(N5CCN(C)CC5)CC4)cc3OC)ncc2Cl)ccc2nccnc12 [Compound I-294]",
    "READOUT VALUE": "50 to 500 nM"
  },
  {
    "COMPOUND": "CCc1cc(Nc2ncc(Cl)c(Nc3ccc4nccnc4c3N(C)S(=O)(=O)C(C)C)n2)c(OC)cc1N1CCC(N(C)C)CC1 [Compound I-142]",
    "READOUT VALUE": "≤ 50 nM"
  },
  {
    "COMPOUND": "COc1nc(N2CCC(N3CCN(C)CC3)CC2)ccc1Nc1ncc(F)c(Nc2ccc3nccnc3c2N(C)S(C)(=O)=O)n1 [Compound I-175]",
    "READOUT VALUE": "500 to 2500 nM"
  },
  {
    "COMPOUND": "COc1nc(N2CCC(N3CCN(C)CC3)CC2)c(C)cc1Nc1ncc(Cl)c(Nc2ccc3nccnc3c2N(C2CC2)S(C)(=O)=O)n1 [Compound I-240]",
    "READOUT VALUE": "500 to 2500 nM"
  }
]

Then there is this compound:
*Q* Provide IC50 value for the following compound: CCc1cc(Nc2ncc(Cl)c(Nc3ccc4nccnc4c3N(C)S(=O)(=O)C(F)(F)F)n2)c(OC)cc1N1CCC(N(C)C)C1 (stereo not shown) [Compound I-133]
*A* 50 to 500 nM

Origin of measurements: patent US20230310428A1
